measurement protocol: Solubility of HMR 3647
Type: physicochemical
measurement conditions: aqueous medium at acidic pH, aqueous buffer; acidic pH, protonated cation
result type: solubility (mg/mL)
// units = mg/mL; emit number, no label

I'd like to know its solubility. The molecule in question is `CC[C@H]1OC(=O)[C@H](C)C(=O)[C@H](C)[C@@H](O[C@@H]2O[C@H](C)C[C@H](N(C)C)[C@H]2O)[C@](C)(OC)C[C@@H](C)C(=O)[C@H](C)[C@H]2N(CCCCn3cnc(-c4cccnc4)c3)C(=O)O[C@]12C` 80
